molecular target: T1, mouse ROR1-ECD (mouse, UniProt Q9Z139 30-406); experiment: phage antibody protein ELISA
T1 construct: extracellular domain; also called mROR1
T1 sequence (Q9Z139 30-406): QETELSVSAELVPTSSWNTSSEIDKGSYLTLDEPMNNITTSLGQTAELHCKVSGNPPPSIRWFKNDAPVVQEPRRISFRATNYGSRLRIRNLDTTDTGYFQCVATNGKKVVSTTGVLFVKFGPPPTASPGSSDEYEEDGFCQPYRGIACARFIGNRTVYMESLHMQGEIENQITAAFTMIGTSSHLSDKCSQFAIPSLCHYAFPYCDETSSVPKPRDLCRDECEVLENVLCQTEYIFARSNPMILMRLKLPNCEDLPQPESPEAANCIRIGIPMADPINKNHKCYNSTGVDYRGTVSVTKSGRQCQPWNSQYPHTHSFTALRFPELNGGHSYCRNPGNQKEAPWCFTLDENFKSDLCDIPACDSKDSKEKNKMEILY

{"binder": "P601-37 (scFv, V domains shown) VH: EVQLVQSGAEVKKPGASVKVSCKASGYTFNNYGFSWVRQAPGQGLEWMGWISVYNGNTNYAQKLQGRVTMTTDTSTSTAYMELRSLRSDDTAVYYCARDYYSDSSGYWDDAFDIWGQGTMVTVSS VL: AIRMTQSPSSLSASVGDRVTITCQASQDISNYLNWYQQKPGKAPKLLIYAASSLQSGVPSRFSGSGSGTDFTLTISSLQPEDFATYYCQQSYSTPFTFGPGTKVDIK", "binding result": "binds"}
{"binder": "P601-28 (scFv, V domains shown) VH: EVQLVQSGGDLVQPGGSLRLSCAASGFTFSSYSMNWVRQAPGKGLEWVSSISSSSSYIYYADSVKGRFTISRDNAKNSLYLQMNSLRAEDTAVYYCARGLGGWTHDAFDIWGQGTTVTVSS VL: QSALTQPASVSGSPGQSITISCTGTSSDVGGYNYVSWYQQHPGKAPKLMIFDVSNRPSGVSNRFSGSKSGNTASLTISGLQAEDEADYYCSSYTSSSTLFGGGTKLTVL", "binding result": "binds"}
{"binder": "P601-14 (scFv, V domains shown) VH: QVQLVQSGAEVKKPGESLKISCKDSGYSFTNYWLGWVRQMPGKGLEWMGIIYPGDSDTRYSPSFRGQVTISADKSISTAYLQWSSLKASDTAMYYCARLNLATHTAFDIWGQGTTVTVSS VL: QSVLTQPASVSGSPGQSITISCTGTSSDVGGYNYVSWYQQHPGKAPKLMIYDVSNRPSGVSNRFSGSKSGNTASLTISGLQAEDEADYYCSSYTSSSTLWVFGGGTKLTVLG", "binding result": "binds"}
